Just for reference, patent US20090270382A1 is where these values come from.

% Inhibition listing for selected compounds.
- Test system: soluble epoxide hydrolase (sEH)
- ASSAY_SUMMARY: Fluorescent assay for mouse and human soluble epoxide hydrolase (CMNPC substrate)
- Format: biochemical
- RUN_CONDITIONS: compound concentration 2000 nM
Numeric only. Scale: %

| LINE_NOTATION | DISPLAY_UNIT | % Inhibition |
| --- | --- | --- |
| O=C(Nc1ccc(OC(F)(F)F)cc1)NC1CCN(C(=O)c2ccncc2)CC1 | % | 99 |

Any idea what its % Inhibition is? The compound is O=C(Nc1ccc(OC(F)(F)F)cc1)NC1CCN(C(=O)c2cnccc2C(F)(F)F)CC1
99

Any idea what its % Inhibition is? The compound is O=C(Nc1ccc(OC(F)(F)F)cc1)NC1CCN(C(=O)c2ccc(N3CCOCC3)nc2)CC1
100

Any idea what its % Inhibition is? The compound is O=C(Nc1ccc(OC(F)(F)F)cc1)NC1CCN(C(=O)c2ccc(Oc3ccccc3)nc2)CC1
100

Any idea what its % Inhibition is? The compound is O=C(Nc1ccc(OC(F)(F)F)cc1)NC1CCN(C(=O)c2cncc(F)c2)CC1
98

Any idea what its % Inhibition is? The compound is O=C(Nc1ccc(OC(F)(F)F)cc1)NC1CCN(C(=O)c2cccnc2)CC1
100

Any idea what its % Inhibition is? The compound is O=C(Nc1ccc(OC(F)(F)F)cc1)NC1CCN(C(=O)c2ccc(Cl)cn2)CC1
97

* * *

% Inhibition listing for selected molecules.
- Test system: soluble epoxide hydrolase (sEH)
- ASSAY_SUMMARY: Fluorescent assay for mouse and human soluble epoxide hydrolase (CMNPC substrate)
- Format: biochemical
- RUN_CONDITIONS: compound concentration 200 nM
Numeric only. Scale: %

| MOLECULE | VALUE_OBSERVED |
| --- | --- |
| Cc1ccc(C(=O)N2CCC(NC(=O)Nc3ccc(OC(F)(F)F)cc3)CC2)cn1 [Compound 4] | 97 |
| Cc1ncccc1C(=O)N1CCC(NC(=O)Nc2ccc(OC(F)(F)F)cc2)CC1 [Compound 3] | 95 |
| COc1ncccc1C(=O)N1CCC(NC(=O)Nc2ccc(OC(F)(F)F)cc2)CC1 [Compound 5] | 99 |

Any idea what its % Inhibition is? The molecule is O=C(Nc1ccc(OC(F)(F)F)cc1)NC1CCN(C(=O)c2ccc(C(F)(F)F)nc2)CC1 [Compound 2]
97

Any idea what its % Inhibition is? The molecule is O=C(Nc1ccc(OC(F)(F)F)cc1)NC1CCN(C(=O)c2cncc(C(=O)O)c2)CC1 [Compound 1]
94

Any idea what its % Inhibition is? The molecule is O=C(Nc1ccc(OC(F)(F)F)cc1)NC1CCN(S(=O)(=O)c2cccnc2)CC1 [Compound 6]
96

* * *

READOUT: melting point

Consider the worked cases shown below.
| COMPOUND | VALUE_OBSERVED |
| --- | --- |
| O=C(Nc1ccc(OC(F)(F)F)cc1)NC1CCN(C(=O)c2cnccc2C(F)(F)F)CC1 [Compound 13] | 89 to 91 °C |
| CN1CCOc2cc(C(=O)N3CCC(NC(=O)Nc4ccc(OC(F)(F)F)cc4)CC3)cnc21 [Compound 17] | 212 to 214 °C |
| O=C(Nc1ccc(OC(F)(F)F)cc1)NC1CCN(C(=O)c2cncc(C(=O)O)c2)CC1 [Compound 1] | 211 to 213 °C |
| O=C(Nc1ccc(OC(F)(F)F)cc1)NC1CCN(C(=O)c2ccc(Cl)cn2)CC1 [Compound 18] | 213 to 215 °C |

Any idea what its melting point is? The compound is Cc1ccc(C(=O)N2CCC(NC(=O)Nc3ccc(OC(F)(F)F)cc3)CC2)cn1 [Compound 4]
206 to 208 °C

Any idea what its melting point is? The compound is COc1ncccc1C(=O)N1CCC(NC(=O)Nc2ccc(OC(F)(F)F)cc2)CC1 [Compound 5]
92 to 94 °C

Any idea what its melting point is? The compound is Cc1ncccc1C(=O)N1CCC(NC(=O)Nc2ccc(OC(F)(F)F)cc2)CC1 [Compound 3]
107 to 109 °C

Any idea what its melting point is? The compound is O=C(Nc1ccc(OC(F)(F)F)cc1)NC1CCN(S(=O)(=O)c2cccnc2)CC1 [Compound 6]
217 to 219 °C

Any idea what its melting point is? The compound is O=C(Nc1ccc(OC(F)(F)F)cc1)NC1CCN(C(=O)c2ccc(C(F)(F)F)nc2)CC1 [Compound 2]
206 to 208 °C
